target: HLA-A2 on T2 cells pulsed with BCL9L: 1351-1359 peptide (human); assay: flow cytometry, 10 ug/ml, pulsed T2 cells
Assay endpoint: ratio of MFI, pulsed to unpulsed

q: Please give measured ratio of MFI, pulsed to unpulsed of the following entry: mAb28042P (antibody, human IgG4 S228P, kappa, V domains shown) VH: QLQLQESDPGLVKPSETLSLTCTVSGDSIRNSNYYWGWIRQPPGKGLEWIGSIYFSGRTYFNPSLKSRVTIPVDMSKNQFSLMLNSVTATDTAVYYCARHGGITAAGGFFDYWGQGTLVTVSS VL: DIQMTQSPSSLSASVGDRVTITCQASQDISNYLNWYQQKPGKAPNVLIYDASNLETGVPSRFSGSGSGTDFTFTISSLQPEDFATYYCQQNDNLPLTFGGGTKVEIKR
a: 46.5 ratio
